Experiment: Solubility in solvent (e.g. aqueous solution that may include a buffer) with pH greater or equal to about 8.0
Type: physicochemical
Details: pH 8, aqueous buffer, ca. 20° C.
MEASURED ENDPOINT: solubility

Prompt: Using known records, supply solubility for CO[C@@H]1[C@H](OC(=O)/C=C/c2ccc(OCCN(C)C)cc2)CCC2(CO2)[C@H]1C1(C)OC1CC=C(C)C (stereo partly shown) [Form A]
Completion: < 200 µg/mL

====

Assay: Solubility in diisopropyl ether
Type: physicochemical
Conditions: organic solvent or mixture, room temperature (ca. 20° C.)
MEASURED ENDPOINT: solubility

Prompt: For the molecule CO[C@@H]1[C@H](OC(=O)/C=C/c2ccc(OCCN(C)C)cc2)CCC2(CO2)[C@H]1C1(C)OC1CC=C(C)C (stereo partly shown) [Form A] , give its reported solubility.
Completion: ~25 mg/mL
